SYSTEM_UNDER_TEST: Gal(b1-4)GlcNAc(b1-3)Gal(b1-4)GlcNAc(b1-3)Gal(b1-4)GlcNAc(b1-2)Man(a1-3)[Gal(b1-4)GlcNAc(b1-3)Gal(b1-4)GlcNAc(b1-3)Gal(b1-4)GlcNAc(b1-2)Man(a1-6)]Man(b1-4)GlcNAc(b1-4)[Fuc(a1-6)]GlcNAc
PROTOCOL_DESCRIPTION: glycan array binding signal (z-score within array); higher = stronger binding
TEST_SETTINGS: glycan notation: IUPAC condensed, linker removed
Many of the other results were omitted from the sample, so the strongest signals are more common in it than they were.
METRIC: glycan array binding signal (z-score)
No unit in the answer, please; the number alone is enough.

Noted for Pbx2CASH domain (Cryptococcus neoformans) (protein) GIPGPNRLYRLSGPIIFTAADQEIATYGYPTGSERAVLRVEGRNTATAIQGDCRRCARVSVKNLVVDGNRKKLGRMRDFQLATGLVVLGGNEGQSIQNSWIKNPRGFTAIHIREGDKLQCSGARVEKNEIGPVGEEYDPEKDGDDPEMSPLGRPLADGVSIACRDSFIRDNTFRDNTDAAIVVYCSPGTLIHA : its glycan array binding signal (z-score) reads 0.266

The values you see were collected from the supplement of paper PMC8728848.
